# System: RAW-Dual (murine macrophage reporter line)
# TEST: NF-kB reporter (SEAP) activity fold change vs agonist alone; higher = enhanced NF-kB activity
# CONDITION INFO: modulator concentration 10 µM; agonist: CpG ODN 1826 0.5 ug/mL
Label criterion met when NF-kB reporter is at or above 1; anything below gets criterion not met.

Some solved cases for reference:
In [3]: df
Out[3]:
                                 smiles_str        label_class
0  Cc1c(F)cc(C(=O)NC2CC2)cc1-c1ccc(C(=O)NCC(C)(C)C)cn1  criterion not met
1  O=C(NC1CCN(c2ncnc3c2CCCC3)CC1)c1ccc(=O)[nH]c1      criterion met
2  N#Cc1c(-n2ncnc2-c2cccc([N+](=O)[O-])c2)sc2c1CCCC2  criterion not met
3  CCOC(=O)C1=C(Nc2ccccc2)SC(=Cc2ccc(O)c(OCC)c2)C1=O      criterion met

Continue with the compound presented below.
In plain terms: is recorded NF-kB reporter at least 1 for Cc1ccc(-c2nn(-c3ccccc3)cc2C=C(C#N)C(N)=O)o1 ?
criterion met
